- assayed_target: mTOR (Homo sapiens (Human))
- Sequence (P42345 2156-2469): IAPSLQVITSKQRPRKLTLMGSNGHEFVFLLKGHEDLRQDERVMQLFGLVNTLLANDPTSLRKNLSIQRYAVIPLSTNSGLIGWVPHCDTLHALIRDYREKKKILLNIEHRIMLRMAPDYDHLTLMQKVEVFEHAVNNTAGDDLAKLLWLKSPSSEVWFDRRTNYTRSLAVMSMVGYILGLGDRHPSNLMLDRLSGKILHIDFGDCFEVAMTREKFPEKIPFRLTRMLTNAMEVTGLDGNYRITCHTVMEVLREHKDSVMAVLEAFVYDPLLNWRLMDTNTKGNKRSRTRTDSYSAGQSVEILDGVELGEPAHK
measurement_name: Ki (nM)
Answers are plain numbers, in nM.

{"molecule": "COc1ncc(-c2ccc3ncc4[nH]c(=O)n(-c5ccc(C(C)(C)C#N)cc5)c4c3n2)cn1 [Compound 111]", "Ki / nM": 1.54}

Field: Ki. Fill in for each record below.
1. Cn1cc(-c2ccc3ncc4c(c3n2)n(-c2ccc(C(C)(C)C#N)cc2)c(=O)n4C)cn1 [Compound 114]
2. Cn1c(=O)n(C2CCN(C(=O)C(C)(C)O)CC2)c2c3nc(-c4cnc5ccccc5c4)ccc3ncc21 [Compound 143]
3. C[C@@H](O)C(=O)N1CCC(n2c(=O)n(C)c3cnc4ccc(-c5ccc(N(C)C)nc5)nc4c32)CC1 [Compound 214]

[40.2, 7.21, 1.74]
